- test_target: DLL4 (human, UniProt Q9NR61)
- Sequence (Q9NR61 27-524): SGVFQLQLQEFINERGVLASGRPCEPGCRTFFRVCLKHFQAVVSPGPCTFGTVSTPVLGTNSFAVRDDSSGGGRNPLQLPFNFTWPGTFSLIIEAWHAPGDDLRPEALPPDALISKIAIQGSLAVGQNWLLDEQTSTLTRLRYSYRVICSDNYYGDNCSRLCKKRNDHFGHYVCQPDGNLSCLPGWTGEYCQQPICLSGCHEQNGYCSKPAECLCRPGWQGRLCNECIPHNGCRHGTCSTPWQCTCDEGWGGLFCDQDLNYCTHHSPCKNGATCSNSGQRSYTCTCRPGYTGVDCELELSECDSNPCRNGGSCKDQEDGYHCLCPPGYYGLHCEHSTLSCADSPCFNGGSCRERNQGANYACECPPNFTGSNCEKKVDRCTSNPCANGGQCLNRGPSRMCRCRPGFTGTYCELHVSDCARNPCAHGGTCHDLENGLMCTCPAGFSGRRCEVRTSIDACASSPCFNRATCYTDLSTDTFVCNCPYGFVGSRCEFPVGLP
- measurement_protocol: ELISA
pEC50: −log10 of the molar value.

| binder | pEC50 |
| --- | --- |
| DVD521 DLL4 arm (antibody, V domains shown, DVD-Ig outer) VH: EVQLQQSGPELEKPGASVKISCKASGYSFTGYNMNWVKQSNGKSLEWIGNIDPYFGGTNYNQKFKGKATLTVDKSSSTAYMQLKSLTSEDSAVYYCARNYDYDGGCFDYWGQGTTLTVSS VL: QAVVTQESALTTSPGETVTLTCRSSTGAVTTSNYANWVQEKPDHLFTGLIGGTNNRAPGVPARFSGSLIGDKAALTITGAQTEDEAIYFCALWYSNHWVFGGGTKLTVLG | 9.59 |
| DVD463 DLL4 arm (antibody, V domains shown, DVD-Ig outer) VH: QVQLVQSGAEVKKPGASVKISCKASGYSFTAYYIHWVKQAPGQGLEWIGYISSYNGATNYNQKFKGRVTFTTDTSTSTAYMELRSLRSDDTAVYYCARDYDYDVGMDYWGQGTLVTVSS VL: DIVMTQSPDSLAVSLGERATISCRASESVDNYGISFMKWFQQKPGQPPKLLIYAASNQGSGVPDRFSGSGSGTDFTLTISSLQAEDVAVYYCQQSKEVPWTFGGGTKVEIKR | 9.30 |
